assayedTarget: human TYK2 catalytic kinase (JH1) domain (Homo sapiens (Human))
Sequence (P29597 897-1176): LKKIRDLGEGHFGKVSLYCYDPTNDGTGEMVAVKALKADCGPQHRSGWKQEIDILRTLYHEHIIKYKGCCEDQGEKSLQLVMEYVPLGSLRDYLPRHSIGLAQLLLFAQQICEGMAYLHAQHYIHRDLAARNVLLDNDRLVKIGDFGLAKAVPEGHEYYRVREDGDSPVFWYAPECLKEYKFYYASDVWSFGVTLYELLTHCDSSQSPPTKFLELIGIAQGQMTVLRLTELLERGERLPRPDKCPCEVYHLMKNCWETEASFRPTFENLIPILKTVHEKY
experiment: ADP-Glo Kinase Assay, recombinant TYK2 catalytic kinase (JH1) domain
Format: biochemical
cond: recombinant JH1 domain 2 nM, 10 μM ATP, JAK3-974 peptide, mean, read-out: TYK2 biochem IC50 (nM) Mean
Structures can show the parent of a compound that is named as a salt.
measurementKind: log10 of IC50 (log10 of the value in nM)
On a log10 scale: recorded IC50, unit nM.

Item O=C([C@H]1CC1(F)F)N1C2CCC1CN(c1ncnn3cc(-c4cnn(C(F)F)c4)cc13)C2 [Example 8] ; assay system human TYK2 catalytic kinase (JH1) domain (Homo sapiens (Human)); log10 of IC50 reported as 2.30

Item O=C([C@@H]1C[C@H]1F)N1C2CCC1CN(c1ncnn3cc(-c4cnn(C(F)F)c4)cc13)C2 [Example 76] ; assay system human TYK2 catalytic kinase (JH1) domain (Homo sapiens (Human)); log10 of IC50 reported as 1.36

Item O=C(C1CC1)N1C2CCC1CN(c1ncnn3cc(-c4cnn([C@@H]5CCOC5)c4)cc13)C2 [Example 156] ; assay system human TYK2 catalytic kinase (JH1) domain (Homo sapiens (Human)); log10 of IC50 reported as 2.40

Item Cn1cc(-c2cc3c(N4CC5CCC(C4)N5C(=O)[C@@H]4C[C@H]4F)ccnn3c2)cn1 [Example 159] ; assay system human TYK2 catalytic kinase (JH1) domain (Homo sapiens (Human)); log10 of IC50 reported as 0.04

Item COc1ccc(-c2cc3c(N4CC5CCC(C4)N5C(=O)C4CC4)ncnn3c2)cc1C#N [Example 185] ; assay system human TYK2 catalytic kinase (JH1) domain (Homo sapiens (Human)); log10 of IC50 reported as 2.60

Item N#Cc1ccc(-c2cc3c(N4CC5CCC(C4)N5C(=O)[C@@H]4C[C@H]4F)ccnn3c2)cn1 [Example 103] ; assay system human TYK2 catalytic kinase (JH1) domain (Homo sapiens (Human)); log10 of IC50 reported as 0.72

Item O=C(C1CC1)N1C2CCC1CN(c1ncnn3cc(-c4cnn(C5CCC5)c4)cc13)C2 [Example 149] ; assay system human TYK2 catalytic kinase (JH1) domain (Homo sapiens (Human)); log10 of IC50 reported as 2.15

Item N#CC1(C(=O)N2C3CCC2CN(c2ncnn4cc(-c5cnn(C(F)F)c5)cc24)C3)CC1 [Example 30, trifluoroacetate] ; assay system human TYK2 catalytic kinase (JH1) domain (Homo sapiens (Human)); log10 of IC50 reported as 1.95

Item O=C([C@@H]1C[C@H]1F)N1C2CCC1CN(c1ccnn3cc(-c4ccnc(C(F)F)c4)cc13)C2 [Example 101] ; assay system human TYK2 catalytic kinase (JH1) domain (Homo sapiens (Human)); log10 of IC50 reported as 0.15

Item Cn1cc(-c2cn3nccc(N4CC5CCC(C4)N5C(=O)[C@@H]4C[C@H]4F)c3n2)cn1 [Example 252] ; assay system human TYK2 catalytic kinase (JH1) domain (Homo sapiens (Human)); log10 of IC50 reported as 0.60

Item Cn1cc(-c2cc3c(N4CC5CCC(C4)N5C(=O)[C@H]4C[C@@H]4C#N)ncnn3c2)cn1 (racemic) [Example 66] ; assay system human TYK2 catalytic kinase (JH1) domain (Homo sapiens (Human)); log10 of IC50 reported as 2.38

Item CCn1cc(-c2cc3c(N4CC5CCC(C4)N5C(=O)C4CC4)ncnn3c2)cn1 [Example 147] ; assay system human TYK2 catalytic kinase (JH1) domain (Homo sapiens (Human)); log10 of IC50 reported as 2.17

Item CN1CCOC(c2nc3c(N4CC5CCC(C4)N5C(=O)[C@@H]4C[C@H]4F)ccnc3[nH]2)C1 (stereo partly drawn) [Example 218] ; assay system human TYK2 catalytic kinase (JH1) domain (Homo sapiens (Human)); log10 of IC50 reported as 2.89

Item O=C([C@H]1C[C@@H]1CO)N1C2CCC1CN(c1ncnn3cc(-c4cnn(C(F)F)c4)cc13)C2 (single isomer, unassigned) [Example 39] ; assay system human TYK2 catalytic kinase (JH1) domain (Homo sapiens (Human)); log10 of IC50 reported as 2.88

Item Cn1cc(-c2cc3c(N4CC5CCC(C4)N5C(=O)[C@@H]4C[C@H]4F)ncnn3c2)ccc1=O [Example 165] ; assay system human TYK2 catalytic kinase (JH1) domain (Homo sapiens (Human)); log10 of IC50 reported as 1.61
